Sourced from the Deep4Chem optical property database

assayMethodText: solvent given as SMILES
conditionLabel: in ClC(Cl)Cl
metricName: emission maximum (nm)
Response body: numeric value in nm, unit text excluded.

A selection of reference data follows.
{"columns": ["structure", "metricName", "quantitativeResult"],
 "data": [
  ["O=[N+]([O-])c1ccc(NCCN(Cc2c3ccccc3cc3ccccc23)c2ccc([N+](=O)[O-])cc2[N+](=O)[O-])c([N+](=O)[O-])c1", "emission maximum", 417],
  ["CCCCOc1ccc(-c2cc(-c3ccc(OCCCC)cc3)c3ccc4c(-c5ccc(OCCCC)cc5)cc(-c5ccc(OCCCC)cc5)c5ccc2c3c54)cc1", "emission maximum", 433],
  ["CCCN1c2ccccc2Sc2cc(/C=C\\c3cc(=O)oc4cc(NC(=O)OCC)ccc34)ccc21", "emission maximum", 635],
  ["CC1(C)CC(NCc2ccc3ccc4cccc5ccc2c3c45)CC(C)(C)N1", "emission maximum", 396],
  ["c1cc2ccc1CCCc1cc3c(cc1CCCc1ccc(c4nsnc14)CCC3)CCC2", "emission maximum", 531],
  ["CN(C)CCN(Cc1c2ccccc2cc2ccccc12)c1ccc([N+](=O)[O-])cc1", "emission maximum", 415]
]}

Req: Name the recorded emission maximum for CCC1(CC)c2ccccc2-c2c1c1c(c3c2C(CC)(CC)c2cc(B(c4c(C)cc(C)cc4C)c4c(C)cc(C)cc4C)ccc2-3)C(CC)(CC)c2ccccc2-1 .
Resp: 387

Req: Name the recorded emission maximum for Cc1ccc(C2=Cc3c4ccccc4c4ccccc4[n+]3[B-](F)(F)O2)cc1 .
Resp: 450

Req: Name the recorded emission maximum for C(#Cc1ccccc1)C(C#Cc1ccccc1)=Cc1ccc2cc(C=C(C#Cc3ccccc3)C#Cc3ccccc3)ccc2c1 .
Resp: 473
